System: HepG2 (ATCC) cell line
assay method text: Cytotoxicity, metabolic cell activity (CellTiter 96 AQueous One), HepG2
Type: cell-based
assay setup: HepG2, compound 1 μM; two independent experiments
For each entry below, report its mean percentage of metabolic activity of treated cells, HepG2 1 μM value.
Report the value in % with no unit label.

query: For the molecule C=CCn1cc(CNC2CCN(CCc3ccnc4ccc(OC)nc34)CC2)cn1 , give its reported mean percentage of metabolic activity of treated cells, HepG2 1 μM.
result: 108.5

query: Identify measured mean percentage of metabolic activity of treated cells, HepG2 1 μM corresponding to COc1ccc2nccc(CCN3CCC(NCc4ccc(Br)cc4)CC3)c2n1
result: 84.3

query: Provide measured mean percentage of metabolic activity of treated cells, HepG2 1 μM value, entry: COc1ccc2nccc(CCN3CCC(NCc4ccc(F)cc4)CC3)c2n1
result: 98.0

query: Using the record for COc1ccc2nccc(CCN3CCC(NCc4ccc(Cl)cc4)CC3)c2n1 , state its measured mean percentage of metabolic activity of treated cells, HepG2 1 μM.
result: 84.5

query: Fill in reported mean percentage of metabolic activity of treated cells, HepG2 1 μM for this entry: COc1ccc2nccc(CCN3CCC(NCc4ccc(OC(F)F)c(O)c4)CC3)c2n1
result: 100.5

query: Given COc1ccc2nccc(CCN3CCC(NCc4ccc(I)cc4)CC3)c2n1 , respond with its mean percentage of metabolic activity of treated cells, HepG2 1 μM.
result: 102.6

query: Give the value of mean percentage of metabolic activity of treated cells, HepG2 1 μM reported for the following: COc1ccc2nccc(CCN3CCC(NCc4ccc(OC(F)F)c(OC)c4)CC3)c2n1
result: 89.7

query: Specify mean percentage of metabolic activity of treated cells, HepG2 1 μM for COc1ccc2nccc(CCN3CCC(NCc4ccc(C(N)=O)cc4)CC3)c2n1 and stop.
result: 94.0

query: Specify mean percentage of metabolic activity of treated cells, HepG2 1 μM for COc1ccc2nccc(CCN3CCC(NCc4ccc(CO)cc4)CC3)c2n1 and stop.
result: 100.2

query: Supply reported mean percentage of metabolic activity of treated cells, HepG2 1 μM belonging to this molecule: COc1ccc2nccc(CCN3CCC(NCc4ccccc4)CC3)c2n1
result: 107.1

query: For the molecule COc1ccc2nccc(CCN3CCC(NCc4ccc(N(C)C)cc4)CC3)c2n1 , report mean percentage of metabolic activity of treated cells, HepG2 1 μM.
result: 102.5

###

System: methicillin-resistant Staphylococcus pseudintermedius S-35
assay method text: MIC broth microdilution, MRSP S-35
Type: cell-based
assay setup: 20 hours of incubation
property name: log10(MIC) (log10 of the value in µg/mL)
Heads up: the numbers are on a log10 scale; they represent MIC in µg/mL.

query: // fetch log10(MIC) given entry COc1ccc2nccc(CCN3CCC(NCc4ccc(OC(F)F)c(OC)c4)CC3)c2n1 [Compound C9]
result: 0.30

query: Identify measured log10(MIC) associated with COc1ccc2nccc(CCN3CCC(NCc4ccc(OC(F)F)c(O)c4)CC3)c2n1 [Compound C10]
result: -0.30

query: Specify measured log10(MIC) for C=CCn1cc(CNC2CCN(CCc3ccnc4ccc(OC)nc34)CC2)cn1 [Compound C11] .
result: 0.30

query: For the compound COc1ccc2nccc(CCN3CCC(NCc4ccc(N(C)C)cc4)CC3)c2n1 [Compound C4] , give its reported log10(MIC).
result: -0.60

query: Provide measured log10(MIC) value, entry: COc1ccc2nccc(CCN3CCC(NCc4ccc(C(N)=O)cc4)CC3)c2n1 [Compound C3]
result: 0.60

query: Return log10(MIC) for the following compound: COc1ccc2nccc(CCN3CCC(NCc4ccc(Br)cc4)CC3)c2n1 [Compound C7]
result: -1.21

query: Hello, please tell me recorded log10(MIC) for this one: COc1ccc2nccc(CCN3CCC(NCc4ccc(F)cc4)CC3)c2n1 [Compound C5]
result: 0.30

query: Return log10(MIC) (reported value) for this compound: COc1ccc2nccc(CCN3CCC(NCc4ccc(Cl)cc4)CC3)c2n1 [Compound C6]
result: -0.60

query: Indicate its recorded log10(MIC); the compound in question is COc1ccc2nccc(CCN3CCC(NCc4ccccc4)CC3)c2n1 [Compound C1]
result: 0.60

query: Kindly indicate its recorded log10(MIC). Item: COc1ccc2nccc(CCN3CCC(NCc4ccc(CO)cc4)CC3)c2n1 [Compound C2]
result: 0.60

query: Supply log10(MIC) value. Item: COc1ccc2nccc(CCN3CCC(NCc4ccc(I)cc4)CC3)c2n1 [Compound C8]
result: -0.82

###

Tested on: HepG2 (ATCC) cell line
assay method text: Cytotoxicity, metabolic cell activity (CellTiter 96 AQueous One), HepG2
Type: cell-based
assay setup: HepG2, compound 50 μM; two independent experiments
Provide the reported mean percentage of metabolic activity of treated cells, HepG2 50 μM of each item.
The reply should contain only the number, in %.

query: Provide mean percentage of metabolic activity of treated cells, HepG2 50 μM value for the following molecule: COc1ccc2nccc(CCN3CCC(NCc4ccc(OC(F)F)c(O)c4)CC3)c2n1
result: −0.4

query: Find the measured mean percentage of metabolic activity of treated cells, HepG2 50 μM of COc1ccc2nccc(CCN3CCC(NCc4ccc(C(N)=O)cc4)CC3)c2n1 and report it.
result: 48.3

query: Give a short answer stating reported mean percentage of metabolic activity of treated cells, HepG2 50 μM for COc1ccc2nccc(CCN3CCC(NCc4ccc(F)cc4)CC3)c2n1 .
result: −1.3

query: Item COc1ccc2nccc(CCN3CCC(NCc4ccccc4)CC3)c2n1 : provide mean percentage of metabolic activity of treated cells, HepG2 50 μM
result: 1.4

query: Please report the measured mean percentage of metabolic activity of treated cells, HepG2 50 μM for COc1ccc2nccc(CCN3CCC(NCc4ccc(I)cc4)CC3)c2n1
result: 0.5

query: Supply recorded mean percentage of metabolic activity of treated cells, HepG2 50 μM for C=CCn1cc(CNC2CCN(CCc3ccnc4ccc(OC)nc34)CC2)cn1 here.
result: 77.0

query: Give mean percentage of metabolic activity of treated cells, HepG2 50 μM for COc1ccc2nccc(CCN3CCC(NCc4ccc(CO)cc4)CC3)c2n1
result: 24.1

query: Return the recorded mean percentage of metabolic activity of treated cells, HepG2 50 μM value; entry: COc1ccc2nccc(CCN3CCC(NCc4ccc(OC(F)F)c(OC)c4)CC3)c2n1
result: −0.3

query: Using the record for COc1ccc2nccc(CCN3CCC(NCc4ccc(Br)cc4)CC3)c2n1 , state its measured mean percentage of metabolic activity of treated cells, HepG2 50 μM.
result: −0.1

query: Provide mean percentage of metabolic activity of treated cells, HepG2 50 μM value for the following molecule: COc1ccc2nccc(CCN3CCC(NCc4ccc(N(C)C)cc4)CC3)c2n1
result: 0.8

query: State its mean percentage of metabolic activity of treated cells, HepG2 50 μM for this molecule: COc1ccc2nccc(CCN3CCC(NCc4ccc(Cl)cc4)CC3)c2n1
result: 0.9

###

Tested on: methicillin-resistant Staphylococcus pseudintermedius S-48
assay method text: MIC broth microdilution, MRSP S-48
Type: cell-based
assay setup: 20 hours of incubation
property name: MIC (µg/mL)
Please respond with the number in µg/mL and leave the unit unwritten.

query: Write down the reported MIC (system: methicillin-resistant Staphylococcus pseudintermedius S-48) of COc1ccc2nccc(CCN3CCC(NCc4ccc(C(N)=O)cc4)CC3)c2n1
result: 4

query: Report MIC on methicillin-resistant Staphylococcus pseudintermedius S-48 for this entry: COc1ccc2nccc(CCN3CCC(NCc4ccc(Cl)cc4)CC3)c2n1
result: 0.25

query: Please tell me the measured MIC for COc1ccc2nccc(CCN3CCC(NCc4ccc(CO)cc4)CC3)c2n1 ; system: methicillin-resistant Staphylococcus pseudintermedius S-48.
result: 4

query: GET MIC where system = methicillin-resistant Staphylococcus pseudintermedius S-48 and item = COc1ccc2nccc(CCN3CCC(NCc4ccc(F)cc4)CC3)c2n1
result: 2

query: Give MIC only, for COc1ccc2nccc(CCN3CCC(NCc4ccc(I)cc4)CC3)c2n1 , using methicillin-resistant Staphylococcus pseudintermedius S-48 data.
result: 0.015

query: Determine reported MIC for COc1ccc2nccc(CCN3CCC(NCc4ccc(OC(F)F)c(OC)c4)CC3)c2n1 ; test system: methicillin-resistant Staphylococcus pseudintermedius S-48.
result: 2

###

Test system: methicillin-resistant Staphylococcus schleiferi subspecies coagulans
assay method text: MIC broth microdilution, MRSS
Assay type: cell-based
assay setup: 20 hours of incubation
property name: MIC (µg/mL)
Numeric only. Scale: µg/mL

query: Fill in MIC for record C=CCn1cc(CNC2CCN(CCc3ccnc4ccc(OC)nc34)CC2)cn1
result: 0.125

query: Supply measured MIC of COc1ccc2nccc(CCN3CCC(NCc4ccc(F)cc4)CC3)c2n1 in your reply.
result: 0.125

query: Read the entry COc1ccc2nccc(CCN3CCC(NCc4ccc(N(C)C)cc4)CC3)c2n1 and write its reported MIC.
result: 0.015

query: Input COc1ccc2nccc(CCN3CCC(NCc4ccc(OC(F)F)c(O)c4)CC3)c2n1 , output reported MIC.
result: 0.25

query: Tell us which MIC value is on record for COc1ccc2nccc(CCN3CCC(NCc4ccc(CO)cc4)CC3)c2n1
result: 0.25

query: Write down MIC measured for item COc1ccc2nccc(CCN3CCC(NCc4ccc(I)cc4)CC3)c2n1
result: 0.002

query: Read off the recorded MIC for COc1ccc2nccc(CCN3CCC(NCc4ccc(OC(F)F)c(OC)c4)CC3)c2n1
result: 0.125

query: Tell us which MIC value is on record for COc1ccc2nccc(CCN3CCC(NCc4ccc(C(N)=O)cc4)CC3)c2n1
result: 0.25

query: Quickly give me recorded MIC for COc1ccc2nccc(CCN3CCC(NCc4ccccc4)CC3)c2n1
result: 0.25

These entries and their values trace back to patent US20250197394A1.
